EXPERIMENTAL_SYSTEM: Sodium-dependent dopamine transporter (Rattus norvegicus)
Sequence (P23977 whole entry): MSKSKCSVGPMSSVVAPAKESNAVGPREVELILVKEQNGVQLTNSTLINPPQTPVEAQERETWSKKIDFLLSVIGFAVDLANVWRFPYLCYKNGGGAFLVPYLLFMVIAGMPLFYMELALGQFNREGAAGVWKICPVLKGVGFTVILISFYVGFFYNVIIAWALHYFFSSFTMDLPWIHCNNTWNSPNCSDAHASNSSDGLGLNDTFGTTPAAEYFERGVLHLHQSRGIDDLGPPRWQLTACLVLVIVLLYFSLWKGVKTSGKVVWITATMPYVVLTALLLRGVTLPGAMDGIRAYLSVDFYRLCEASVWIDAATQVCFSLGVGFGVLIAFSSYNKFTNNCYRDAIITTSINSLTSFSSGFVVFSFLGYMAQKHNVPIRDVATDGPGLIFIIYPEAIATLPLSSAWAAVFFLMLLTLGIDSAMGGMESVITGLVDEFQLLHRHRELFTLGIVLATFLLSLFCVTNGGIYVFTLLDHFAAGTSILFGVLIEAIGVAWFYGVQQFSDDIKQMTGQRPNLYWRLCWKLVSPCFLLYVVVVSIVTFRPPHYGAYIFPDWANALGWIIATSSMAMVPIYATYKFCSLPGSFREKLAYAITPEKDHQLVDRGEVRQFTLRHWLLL
TEST_NAME: Inhibition of [3H]-DA uptake in rat brain
Assay type: functional, tissue-based
PARAMETER_MEASURED: IC50 (µM)

- CN1CCC(C#N)(c2ccc(Cl)c(Cl)c2)CC1: 11.1
- CCOC(=O)C1(c2ccc(Cl)cc2)CCN(C)CC1: 26.9

====

EXPERIMENTAL_SYSTEM: Mu-type opioid receptor (Homo sapiens, UniProt P35372)
Sequence (P35372 whole entry): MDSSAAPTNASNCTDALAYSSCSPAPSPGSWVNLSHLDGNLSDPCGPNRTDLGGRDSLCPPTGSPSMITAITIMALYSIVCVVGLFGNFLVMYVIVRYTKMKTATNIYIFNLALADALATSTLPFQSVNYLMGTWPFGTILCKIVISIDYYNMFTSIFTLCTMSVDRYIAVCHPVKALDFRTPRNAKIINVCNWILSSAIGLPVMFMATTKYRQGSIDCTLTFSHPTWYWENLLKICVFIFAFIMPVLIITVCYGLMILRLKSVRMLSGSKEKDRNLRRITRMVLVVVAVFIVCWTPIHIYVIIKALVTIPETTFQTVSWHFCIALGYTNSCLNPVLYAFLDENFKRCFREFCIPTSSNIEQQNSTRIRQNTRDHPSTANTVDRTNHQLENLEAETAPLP
TEST_NAME: Inhibition of [3H]DAMGO binding to mu-opioid receptor
pKi: −log10 of the molar value.
PARAMETER_MEASURED: pKi

* CN1CCC(C#N)(c2ccc(Cl)c(Cl)c2)CC1 | 4.40
* Cc1ccc(C2(C#N)CCN(C)CC2)cc1 | 4.39
* CCOC(=O)C1(c2ccc(C)cc2)CCN(C)CC1 | 5.57
* CCOC(=O)C1(c2ccc(Cl)c(Cl)c2)CCN(C)CC1 | 5.69

Measured values drawn from ChEMBL document CHEMBL1142692 for this set.
